Assay: Solubility of Compound 1 in solvents
Type: physicochemical
Conditions: benzyl alcohol, organic solvent or mixture
test readout: solubility

Record request: solubility value, item Cc1cccc(-n2ncc(C)c2-c2cc3cnccc3s2)n1
> 300 mg/mL

* * *

Test: Solubility of Compound 1 in solvents
Type: physicochemical
Details: PEG 400, organic solvent or mixture
test readout: solubility (mg/mL)
Provide only the numeric value, understood in mg/mL.

Record request: solubility value, item Cc1cccc(-n2ncc(C)c2-c2cc3cnccc3s2)n1
43.9

* * *

Assay: Solubility of Compound 1 in solvents
Assay type: physicochemical
Settings: acetone, organic solvent or mixture
Description: Tables 2 and 3 provide the solubility of the exemplary ALK-5 kinase inhibitor Compound 1 in various solvents.
test readout: solubility (mg/mL)
Provide only the numeric value, understood in mg/mL.

Record request: solubility value, item Cc1cccc(-n2ncc(C)c2-c2cc3cnccc3s2)n1
38.3
